System: SF-295 CNS
Test Details: NCI-60 one-dose screen, 48 h (100 = growth as untreated, 0 = no growth, -100 = all killed)
Stated Conditions: 10 µM unless noted
About 83,000 compounds went through this panel and 20% of them were active in at least one assay; those are over-represented in the sample as a whole. The source made the active and inactive calls. The calls were made as follows: active = growth percent below 10; inactive = the rest.
Metric Name: growth

* COC(=O)C(Sc1ccc(Cl)cc1)C1SC(=S)N(Cc2ccccc2)C1=O (stereo not given) | 75.6% (inactive)
* N#C/C(=C1C=C/C(=N/O)C(Cl)=C/1)c1ccc(Cl)cc1 | 141% (inactive)
* C=C[C@@H]1C[C@@H]2Cc3ccccc3N1O2 | 99.8% (inactive)
* CCOC(=O)c1cn2c3c(cccc3c1=O)C(=O)/C(=C/c1cccc(Cl)c1Cl)C2 | 95.8% (inactive)
* C=C1CCC2C(C)(CO)C(O)CCC2(C)C1C/C=C1/C(=O)OCC1Oc1ccccc1C (stereo not given) | 97.6% (inactive)
